System: Escherichia coli
measurement.notes: Antimicrobial activity against Escherichia coli isolate after 24 hrs by disk diffusion method
Type: functional
# note: boundary value 100 µg/mL maps to 0.0; MIC below it maps to 1.0

compound=CCS(=O)(=O)c1ccc2oc(-c3ccccc3Br)nc2c1 classification=0.0
compound=CCS(=O)(=O)c1ccc2oc(-c3ccccc3Cl)nc2c1 classification=0.0
compound=CCS(=O)(=O)c1ccc2oc(-c3cc(Br)ccc3Cl)nc2c1 classification=0.0
compound=CCS(=O)(=O)c1ccc2oc(Cc3ccccc3Cl)nc2c1 classification=0.0
compound=CCS(=O)(=O)c1ccc2oc(Cc3ccc(C)cc3)nc2c1 classification=0.0
compound=CCS(=O)(=O)c1ccc2oc(-c3ccccc3)nc2c1 classification=1.0
compound=CCS(=O)(=O)c1ccc2oc(-c3ccc([N+](=O)[O-])cc3)nc2c1 classification=1.0
compound=CCS(=O)(=O)c1ccc2oc(-c3ccccc3F)nc2c1 classification=0.0
compound=CCS(=O)(=O)c1ccc2oc(-c3ccc(C)cc3)nc2c1 classification=1.0
compound=CCS(=O)(=O)c1ccc2oc(Cc3ccc(Cl)cc3)nc2c1 classification=0.0
compound=CCS(=O)(=O)c1ccc2oc(-c3ccc(Br)cc3)nc2c1 classification=1.0
compound="CC1(C)S[C@@H]2[C@H](NC(=O)[C@H](N)c3ccccc3)C(=O)N2[C@H]1C(=O)O.O.O.O [AMPICILLIN TRIHYDRATE]" classification=0.0
compound=CCS(=O)(=O)c1ccc2oc(-c3ccc(Cl)cc3)nc2c1 classification=1.0
compound=CCS(=O)(=O)c1ccc2oc(-c3cccc(C)c3C)nc2c1 classification=0.0
compound="CC1COc2c(N3CCN(C)CC3)c(F)cc3c(=O)c(C(=O)O)cn1c23 (stereo unspecified)" classification=1.0
compound=CCS(=O)(=O)c1ccc2oc(Cc3ccc(F)cc3)nc2c1 classification=0.0
compound=CCc1ccc(-c2nc3cc(S(=O)(=O)CC)ccc3o2)cc1 classification=1.0
compound=CCS(=O)(=O)c1ccc2oc(-c3ccc(C(C)(C)C)cc3)nc2c1 classification=1.0
compound=CCS(=O)(=O)c1ccc2oc(CCc3ccccc3)nc2c1 classification=0.0
compound=CCS(=O)(=O)c1ccc2oc(-c3ccc(F)cc3)nc2c1 classification=1.0
compound=CCS(=O)(=O)c1ccc2oc(Cc3ccc(Br)cc3)nc2c1 classification=0.0
